- System: RXF 631
- Protocol Summary: NCI tumour cell line growth inhibition, 48 h
Active and inactive are the calls of the source. Rule as the data show it: active = GI50 up to about 1.1 µM and inactive = higher.
Result category, one only: active, inactive

Molecule	Experimental System	Cat
C[C@@H]1CC2(N=CCS2)[C@]2(O)O[C@@H]3C[C@@]4(C)[C@H](C[C@H]3O[C@@H]2O1)C[C@H]1O[C@]12[C@@H]4[C@H](O)C(=O)[C@]1(C)C(C3=CC(=O)OC3)CC[C@]21O (some centres undefined)	RXF 631	active
CCOC(=O)C1([Se]c2ccccc2)CCCC1=O (centres undefined)	RXF 631	inactive
CC1(Cl)C(=O)NC(=O)N(C2CC(N=[N+]=[N-])C(CO)O2)C1N=[N+]=[N-] (centres undefined)	RXF 631	inactive

For the next question, use this molecule.
Kindly provide the recorded test outcome for the following molecule: O=C1c2ccccc2C2(O)N(c3ccccc3)C(=S)N(c3ccccc3)C12O (centres undefined)
inactive
